B1: minF1; a variant is named by its letters at N, in order (parent)
chain: GAGACCGCAACTGAAAAGTTGTTNNNNAANNNNGGNTNNATTTCTGCACGTAGAAGCAAAAGGC

- Variants of: B1
- TEST_SUMMARY: fraction ligated after 30 min (ligated reads / total reads); higher = more ligase activity
- COND: with F1*subA RNA substrate (template-directed ligation), 42 °C
Assign Criterion met to entries whose fraction ligated meets or exceeds 0.004; assign Criterion not met to the rest.

Solved entries (count: 5):
1. GAGACCGCAACTGAAAAGTTGTTAAAAATGATGGGTTGAATTTCTGCACGTAGAAGCAAAAGGC [AAAAGATGTGA A29T]    Criterion met
2. GAGACCGCAACTGAAAAGTTGTATCAAAATGGAGGGTTGATTTCTGCACGTAGAAGCAAAAGGC [TCAATGGAGTG T23A]    Criterion not met
3. GAGACCGCAACTGAAAAGTTGTTATAAAATGGATGGGTTATTTCTGCACGTAGAAGCAAAAGGC [ATAATGGAGTT G34T T37G]    Criterion not met
4. GAGACCGCAACTGAAAAGTTGTATCGAAATGGATGGGTTATTTCTGCACGTAGAAGCAAAAGGC [TCGATGGAGTT T23A G34T T37G]    Criterion not met
5. GAGACCGCAACTGAAAAGTTGTTATCAGAGATGGGTTGAATTTCTGCACGTAGAAGCAAAAGGC [ATCAGATGTGA A28G]    Criterion met

Q. Tell me whether fraction ligated is at least 0.004 here: GAGACCGCAACTGAAAAGTTGTTATCGAAATGGTGGTTGATTTCTGCACGTAGAAGCAAAAGGC [ATCGATGGGTG G34T]
A. Criterion met

Q. Tell me whether fraction ligated is at least 0.004 here: GAGACCGCAACTGAAAAGTTGTTATCAGATGGTGGTTGAATTTCTGCACGTAGAAGCAAAAGGC [ATCATGGTTGA A28G]
A. Criterion not met

Q. Tell me whether fraction ligated is at least 0.004 here: GAGACCGCAACTGAAAAGTTGTTAAGAAATGAGGGTTGAATTTCTGCACGTAGAAGCAAAAGGC [AAGATGAGTGA]
A. Criterion met

Q. Tell me whether fraction ligated is at least 0.004 here: GAGACCGCAACTGAAAAGTTGTTCAAAATGGATGGTTGAATTTCTGCACGTAGAAGCAAAAGGC [CAAAGGATTGA A29T]
A. Criterion not met
